Taken from the NIST ThermoML archive (doi:10.1016/j.jct.2011.11.025).

- PROCEDURE_SUMMARY: activity coefficient (dimensionless); of the first substance listed, at infinite dilution; xn = mol fraction of the nth substance listed
- RECORDED_CONDITIONS: 348.15 K; Liquid; Chromatography; x1 = 0
Classification by activity coefficient follows these ranges: low (below 1), medium (1 to below 8), high (8 or more)

Please review the following examples before continuing.
COMPOUND | DISCRETE_LABEL
CCC(C)(C)C [2,2-dimethylbutane] + CCCCCCn1cc[n+](C)c1.N#C[B-](C#N)(C#N)C#N | high
CCC(=O)OC [methyl propanoate] + CCCCCCn1cc[n+](C)c1.N#C[B-](C#N)(C#N)C#N | low
CCCCO [butan-1-ol] + CCCCCCn1cc[n+](C)c1.N#C[B-](C#N)(C#N)C#N | medium

Consider the additional compound presented here.
Returns: class label. Input: C#CCCCC [1-hexyne] + CCCCCCn1cc[n+](C)c1.N#C[B-](C#N)(C#N)C#N
medium

====

- PROCEDURE_SUMMARY: activity coefficient (dimensionless); of the first substance listed, at infinite dilution; xn = mol fraction of the nth substance listed
- RECORDED_CONDITIONS: 368.15 K; Liquid; Chromatography; x1 = 0
QUANTITY: activity coefficient
Give bare numbers.

COMPOUND | NUMERIC_READOUT
CCCCCCC [heptane] + CCCCCCn1cc[n+](C)c1.N#C[B-](C#N)(C#N)C#N | 12.4
C=Cc1ccccc1 [styrene] + CCCCCCn1cc[n+](C)c1.N#C[B-](C#N)(C#N)C#N | 0.926

Can you give me activity coefficient for all of these, one by one?
1. Cc1ccccc1 [toluene] + CCCCCCn1cc[n+](C)c1.N#C[B-](C#N)(C#N)C#N
2. C1CCOC1 [tetrahydrofuran] + CCCCCCn1cc[n+](C)c1.N#C[B-](C#N)(C#N)C#N

[1.08, 0.527]

Okay, here is my list. What is activity coefficient for each of these?
1. CC(C)=O [acetone] + CCCCCCn1cc[n+](C)c1.N#C[B-](C#N)(C#N)C#N
2. CC#N [acetonitrile] + CCCCCCn1cc[n+](C)c1.N#C[B-](C#N)(C#N)C#N
3. c1ccncc1 [pyridine] + CCCCCCn1cc[n+](C)c1.N#C[B-](C#N)(C#N)C#N
4. Cc1ccccc1C [1,2-dimethylbenzene] + CCCCCCn1cc[n+](C)c1.N#C[B-](C#N)(C#N)C#N
5. CCC(C)(C)OC [2-methoxy-2-methylbutane] + CCCCCCn1cc[n+](C)c1.N#C[B-](C#N)(C#N)C#N
6. CC(=O)O [acetic acid] + CCCCCCn1cc[n+](C)c1.N#C[B-](C#N)(C#N)C#N
7. CCCC(C)=O [pentan-2-one] + CCCCCCn1cc[n+](C)c1.N#C[B-](C#N)(C#N)C#N

[0.381, 0.4, 0.429, 1.31, 2.42, 0.335, 0.572]

List reported activity coefficient for each of these compounds:
1. CCCCCCCC [octane] + CCCCCCn1cc[n+](C)c1.N#C[B-](C#N)(C#N)C#N
2. C1COCCO1 [1,4-dioxane] + CCCCCCn1cc[n+](C)c1.N#C[B-](C#N)(C#N)C#N
3. CC(C)(C)O [2-methylpropan-2-ol] + CCCCCCn1cc[n+](C)c1.N#C[B-](C#N)(C#N)C#N
4. CCCCCCCCC [nonane] + CCCCCCn1cc[n+](C)c1.N#C[B-](C#N)(C#N)C#N
5. CC(C)CO [2-methyl-1-propanol] + CCCCCCn1cc[n+](C)c1.N#C[B-](C#N)(C#N)C#N

1: 16.6; 2: 0.454; 3: 0.914; 4: 21.9; 5: 0.977
